B1: PLAGL1 (parent)
chain: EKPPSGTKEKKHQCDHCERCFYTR

# Variants of: B1
# testName: protein stability index of a GFP-peptide fusion (GPS, HEK-293T) (PSI 1-6); higher = more stable;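 note: lentivirally expressed fusions sorted by FACS into six bins by GFP to DsRed ratio, PSI derived from sequencing read proportions per bin multiplied by bin number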
# measurementConditions: c terminus: a fixed tail appended
Label scheme for protein stability index: class 1 = under 3, class 2 = from 3 up to 4, class 3 = 4 and over

{"mutationCode": "K11Y", "assignedClass": "class 2"}
{"mutationCode": "E1M", "assignedClass": "class 3"}
{"mutationCode": "P3A", "assignedClass": "class 3"}
{"mutationCode": "P3R", "assignedClass": "class 2"}
{"mutationCode": "E9A", "assignedClass": "class 2"}
{"mutationCode": "T23S", "assignedClass": "class 2"}
{"mutationCode": "T23E", "assignedClass": "class 3"}
{"mutationCode": "H16R", "assignedClass": "class 2"}
{"mutationCode": "K8F", "assignedClass": "class 1"}
{"mutationCode": "E1I", "assignedClass": "class 1"}
{"mutationCode": "C17N", "assignedClass": "class 2"}
{"mutationCode": "F21R", "assignedClass": "class 3"}
{"mutationCode": "S5H", "assignedClass": "class 2"}
{"mutationCode": "T23N", "assignedClass": "class 1"}
{"mutationCode": "E1G", "assignedClass": "class 2"}
{"mutationCode": "H12K", "assignedClass": "class 2"}
{"mutationCode": "S5W", "assignedClass": "class 2"}
{"mutationCode": "G6P", "assignedClass": "class 3"}
{"mutationCode": "E18S", "assignedClass": "class 1"}
{"mutationCode": "H16I", "assignedClass": "class 1"}
{"mutationCode": "G6M", "assignedClass": "class 2"}
{"mutationCode": "Q13M", "assignedClass": "class 2"}
{"mutationCode": "P3Q", "assignedClass": "class 2"}
{"mutationCode": "R24H", "assignedClass": "class 3"}
{"mutationCode": "R19F", "assignedClass": "class 2"}
{"mutationCode": "S5V", "assignedClass": "class 2"}
{"mutationCode": "H16F", "assignedClass": "class 2"}
{"mutationCode": "E9T", "assignedClass": "class 2"}
{"mutationCode": "D15Q", "assignedClass": "class 1"}
{"mutationCode": "F21Q", "assignedClass": "class 3"}
{"mutationCode": "Y22N", "assignedClass": "class 3"}
{"mutationCode": "H16C", "assignedClass": "class 1"}
{"mutationCode": "Y22R", "assignedClass": "class 3"}
{"mutationCode": "K10I", "assignedClass": "class 2"}
{"mutationCode": "S5Y", "assignedClass": "class 2"}
{"mutationCode": "C14E", "assignedClass": "class 3"}
{"mutationCode": "Q13C", "assignedClass": "class 2"}
{"mutationCode": "R19L", "assignedClass": "class 2"}
{"mutationCode": "K10F", "assignedClass": "class 2"}
{"mutationCode": "Q13I", "assignedClass": "class 2"}
{"mutationCode": "H16S", "assignedClass": "class 3"}
{"mutationCode": "Q13R", "assignedClass": "class 1"}
{"mutationCode": "Q13Y", "assignedClass": "class 1"}
{"mutationCode": "Y22F", "assignedClass": "class 2"}
{"mutationCode": "H12M", "assignedClass": "class 1"}
{"mutationCode": "T7C", "assignedClass": "class 3"}
{"mutationCode": "E9H", "assignedClass": "class 2"}
{"mutationCode": "R24D", "assignedClass": "class 3"}
{"mutationCode": "F21D", "assignedClass": "class 3"}
{"mutationCode": "E18F", "assignedClass": "class 1"}
{"mutationCode": "D15M", "assignedClass": "class 1"}
{"mutationCode": "T7K", "assignedClass": "class 2"}
{"mutationCode": "E18P", "assignedClass": "class 3"}
{"mutationCode": "C17M", "assignedClass": "class 2"}
{"mutationCode": "G6C", "assignedClass": "class 3"}
{"mutationCode": "R24E", "assignedClass": "class 3"}
{"mutationCode": "H12V", "assignedClass": "class 1"}
{"mutationCode": "K2Y", "assignedClass": "class 2"}
{"mutationCode": "E18K", "assignedClass": "class 1"}
{"mutationCode": "G6K", "assignedClass": "class 2"}
{"mutationCode": "E9F", "assignedClass": "class 2"}
{"mutationCode": "E9P", "assignedClass": "class 2"}
{"mutationCode": "C20R", "assignedClass": "class 1"}
{"mutationCode": "F21C", "assignedClass": "class 2"}
{"mutationCode": "Q13K", "assignedClass": "class 2"}
{"mutationCode": "D15G", "assignedClass": "class 3"}
{"mutationCode": "R19T", "assignedClass": "class 2"}
{"mutationCode": "S5T", "assignedClass": "class 2"}
{"mutationCode": "H12L", "assignedClass": "class 1"}
{"mutationCode": "C14D", "assignedClass": "class 3"}
{"mutationCode": "S5G", "assignedClass": "class 2"}
{"mutationCode": "K8S", "assignedClass": "class 2"}
{"mutationCode": "G6D", "assignedClass": "class 2"}
